- Tested on: MDA-MB-231 breast
- test.details: NCI-60 one-dose screen, 48 h (100 = growth as untreated, 0 = no growth, -100 = all killed)
- details: 10 µM unless noted
The panel holds about 83,000 compounds, 20% with a hit somewhere; the sample as a whole holds those more often.
property.measured: growth (%)
Report as a plain number; the unit % is understood.

Return growth measured with MDA-MB-231 breast given this compound: `COc1cc(/C=N/Nc2ncnc3c2c(C)nn3-c2ccc(F)cc2)ccc1O`
84.5

What do you get for `C=C(C)[C@@H]1CC[C@]2(C(=O)O)CC[C@]3(C)[C@H](CC[C@@H]4[C@@]5(C)C/C(=C/c6cccc(I)c6)C(=O)C(C)(C)[C@@H]5CC[C@]43C)[C@@H]12` ?
56

What do you get for `COc1cnc2c(c1)C(=O)c1c-2n(CCCNCCN2CCOCC2)c(=O)c2cc([N+](=O)[O-])ccc12` ?
2.48

What do you get for NC(=O)[C@@H]1CC2CCC1C2 (stereo not given in full) ?
123

What do you get for `COc1ccc(/C(=C\c2ccc3c(c2)OCO3)C(=O)Nc2nc3ccccc3s2)cc1OC` ?
109

What do you get for O=C1CCN2C(=O)Nc3ccccc3C2C1 (stereo not given) ?
93.5

What do you get for `CN(CSc1ccc(Cl)cc1)c1ccc(CSc2ccc(Cl)cc2)cc1` ?
22.2

What do you get for `COc1ccc(C(=O)/C=C/c2cc(-c3cc(OC)c(OC)c(OC)c3)n[nH]2)cc1OC` ?
-4.03

What do you get for `COc1cc2c(cc1-c1c(C)noc1C)ncc1nc(C3CCC(F)(F)CC3)n([C@@H](C)COC(F)F)c12` ?
41.6

What do you get for `CC(=O)Oc1ccccc1C(=O)/C=C/c1cccc([N+](=O)[O-])c1` ?
85.2

What do you get for `Cc1ccc(Sc2sc(-c3ccccc3)nc2[P+](c2ccccc2)(c2ccccc2)c2ccccc2)cc1` ?
-29.5

What do you get for `COc1ccc(-c2nc(SCC(=O)Nc3ccc(C(C)=O)cc3)[nH]c(=O)c2C#N)cc1` ?
95.2

What do you get for `COc1cc2nc(Cl)nc(Nc3cccc(C(=O)/C=C/c4ccc(F)cc4)c3)c2cc1OC` ?
62.4

What do you get for `Cn1cnc2c1c(=O)n(CCC(=O)Nc1ccc(F)cc1)c(=O)n2C` ?
101

What do you get for `O=C1/C(=C\c2ccco2)SC(=S)N1CCc1ccc(O)cc1` ?
80.5

What do you get for `CC(=O)O[C@@H]1CCN2C(=O)N(C)c3ccccc3[C@@H]2C1` ?
111

What do you get for CN(C)CCCC1(c2ccc(F)cc2)OCc2cc(-c3ccc(C(F)(F)F)nc3)ccc21 (stereo not given) ?
72.6

What do you get for `NS(=O)(=O)c1ccc(CCNC(=O)/C=C/c2ccc(Cl)cc2)cc1` ?
98.4

What do you get for COc1ccc(/C=C/C(=O)NCC(C)O)cc1 (stereo not given) ?
100

What do you get for `COc1ccc2c3c(c4ccccc4cc13)C(=O)N(CCN(C)CCN)C2=O` ?
-72.1
